Data provenance: PubChem BioAssay (NCATS)

# Method description: qHTS of pediatric cancer cell lines to identify multiple opportunities for drug repurposing: Primary screen for NB1643 cells (AID 1347099); also: nearly all actives have a fitted effect of over 50% in size; also: potency is read from the fitted curve at half-maximal effect
# Settings: NB1643 neuroblastoma viability, CellTiter-Glo luminescence, 48 h; series mostly up to 46 µM
Results filed as inconclusive are left out. The source made the active and inactive calls. Calls follow the shape of the dose curve; as a rule, active = well fitted cell-killing curve with a large enough effect; inconclusive = small, poorly fitted or top-dose-only effect; inactive = no such curve, though single readings can be large or run the other way.
Reported property: Potency

Below: 6 molecules and their reported Potency.
Nc1nc(=O)n([C@H]2CSC(CO)O2)cc1F (stereo not given in full) : inactive
COc1cc(N2CCC(C(N)=O)CC2)ccc1Nc1nc(N)c(Cl)c(Nc2ccccc2S(=O)(=O)C(C)C)n1 : 526 nM (active)
c1ccc2c(Oc3nc(Nc4ccc(N5CCOCC5)cc4)c4ncn(C5CCCCC5)c4n3)cccc2c1 : inactive
NC1=N[C@H]2[C@H](CS[C@H]2CCCCC(=O)O)N1 : inactive
COc1ccc(C(C)=O)c(O)c1 : 5260 nM (active)
CCc1ccc(C(=O)Nc2cc(CN3CCN(C)CC3)cc(C(F)(F)F)c2)cc1C#Cc1cnc2ccnn2c1 : 1180 nM (active)

// query What value of Potency has been reported for the following molecule? C#C[C@]1(O)CC[C@@H]2[C@@H]3CCc4cc(O)ccc4[C@H]3CC[C@@]21C
// result 20900 nM (active)

// query What value of Potency has been reported for the following molecule? FC(F)c1nc2ccccc2n1-c1nc(N2CCOCC2)nc(N2CCOCC2)n1
// result 1480 nM (active)

// query What value of Potency has been reported for the following molecule? N=c1ccn2c(n1)O[C@H]1[C@@H](O)[C@@H](CO)O[C@H]12
// result 9350 nM (active)

// query What value of Potency has been reported for the following molecule? CC(C=CC1=C(C)CCCC1(C)C)=CC=CC(C)=CC(=O)Nc1ccc(O)cc1
// result 17100 nM (active)

// query What value of Potency has been reported for the following molecule? COc1ccc2c(c1OC)C(=O)OC2[C@H]1c2c(cc3c(c2OC)OCO3)CCN1C (stereo not given in full)
// result 1180 nM (active)

// query What value of Potency has been reported for the following molecule? COC[C@H](NC(=O)c1cnc(C)s1)C(=O)N[C@@H](COC)C(=O)N[C@@H](Cc1ccccc1)C(=O)[C@@]1(C)CO1
// result 132 nM (active)

// query What value of Potency has been reported for the following molecule? C=CC(=O)N1CCc2ccc(-n3c(=O)ccc4cnc5ccc(-c6cnn(C)c6)cc5c43)cc21
// result 2350 nM (active)

// query What value of Potency has been reported for the following molecule? C[C@@]12C(=O)OC(=O)[C@@]1(C)C1CCC2O1
// result 1480 nM (active)

====

# Method description: qHTS of pediatric cancer cell lines to identify multiple opportunities for drug repurposing: Primary screen for Rh41 cells (AID 1347108); also: nearly all actives have a fitted effect of over 70% in size
# Settings: Rh41 rhabdomyosarcoma viability, CellTiter-Glo luminescence, 48 h; series mostly up to 46 µM
Records with an inconclusive call do not appear. Activity calls are given as the source filed them. The call rests on the fitted dose curve; in most records, active means well fitted cell-killing curve with a large enough effect; inconclusive means small, poorly fitted or top-dose-only effect; inactive means no such curve, though single readings can be large or run the other way. Starred links: 1 amine or outer side, 2 acyl side, 3 side chain; linkers in the order of their positions; H or OH if unused. Positions of bridges follow the written chain, without caps; N, C: chain ends. Non-standard residues stand in square brackets, D forms with d. Residues, ends and D or L forms follow the SMILES beside them. Chains are numbered I, II in the order given. Actinocin(9to1) = Cc1c2oc3c(C)ccc(C(=O)[*:1])c3nc-2c(C(=O)[*:2])c(N)c1=O; NMeV = CN[CH](C(=O)O)C(C)C; Sar = CNCC(=O)O
Log the outcome using a class from true (1) for active, false (0) for inactive

Solved entries (count: 3):
CC(C)NC[C@@H](C(=O)N1CCN(c2ncnc3c2[C@H](C)C[C@H]3O)CC1)c1ccc(Cl)cc1 : true (1)
CCOC(=O)N1CCN([N+]([O-])=NOc2ccc([N+](=O)[O-])cc2[N+](=O)[O-])CC1 : true (1)
CC(C)(N)c1ccc(-c2nc3ccccc3nc2-c2ccccc2)cc1 : true (1)

// query Hi team, can someone confirm the assay call for Cc1cn([C@@H]2O[C@H](CO)[C@@H](O)[C@H]2F)c(=O)[nH]c1=O ?
// result false (0)

// query Hi team, can someone confirm the assay call for Cc1c2oc3c(C)ccc(C(=O)NC4C(=O)NC(C(C)C)C(=O)N5CCCC5C(=O)N(C)CC(=O)N(C)C(C(C)C)C(=O)OC4C)c3nc-2c(C(=O)NC2C(=O)NC(C(C)C)C(=O)N3CCCC3C(=O)N(C)CC(=O)N(C)C(C(C)C)C(=O)OC2C)c(N)c1=O (stereo unspecified) (I: TVP[Sar][NMeV] / II: TVP[Sar][NMeV]; ester I:1-I:C, II:1-II:C; linker I:N-II:N via Actinocin(9to1); configuration not given here) ?
// result true (1)

// query Hi team, can someone confirm the assay call for CCC[C@H]1C[C@H](C(=O)N[C@@H]([C@@H]2O[C@@H](SC)[C@@H](O)[C@@H](O)[C@@H]2O)[C@H](C)Cl)N(C)C1 ?
// result false (0)
